Collected Kd values appear next to each entry.
# studyTarget: T1, human IL-18 binding protein (IL-18BP) (human, UniProt O95998 31-194)
# T1 construct: also called hu IL-18BP; hIL18BP
# T1 sequence (looked up): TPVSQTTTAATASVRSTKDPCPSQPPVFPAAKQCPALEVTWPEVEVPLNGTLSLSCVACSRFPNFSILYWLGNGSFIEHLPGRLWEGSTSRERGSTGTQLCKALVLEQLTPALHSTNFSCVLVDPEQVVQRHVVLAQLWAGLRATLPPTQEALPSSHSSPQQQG
# assayOverview: Octet BLI
quantityKind: Kd (nM)

IL-18 variant G3F, N91E, K53S (ligand, also called G3F/K53S/N91E) YFFKLESKLSVIRNLNDQVLFIDQGNRPLFEDMTDSDMRDNAPRTIFIISMYSDSQPRGMAVTISVKSEKISTLSSENKIISFKEMNPPDEIKDTKSDIIFFQRSVPGHDNKMQFESSSYEGYFLASEKERDLFKLILKKEDELGDRSIMFTVQNED; 9.1
IL-18 variant G3T, K53S (ligand) YFTKLESKLSVIRNLNDQVLFIDQGNRPLFEDMTDSDMRDNAPRTIFIISMYSDSQPRGMAVTISVKSEKISTLSSENKIISFKEMNPPDNIKDTKSDIIFFQRSVPGHDNKMQFESSSYEGYFLASEKERDLFKLILKKEDELGDRSIMFTVQNED; 18
IL-18 variant G3H, N91V, K53S (ligand, also called G3H/K53S/N91V) YFHKLESKLSVIRNLNDQVLFIDQGNRPLFEDMTDSDMRDNAPRTIFIISMYSDSQPRGMAVTISVKSEKISTLSSENKIISFKEMNPPDVIKDTKSDIIFFQRSVPGHDNKMQFESSSYEGYFLASEKERDLFKLILKKEDELGDRSIMFTVQNED; 8.6
IL-18 variant G3R, N91S, K53A (ligand) YFRKLESKLSVIRNLNDQVLFIDQGNRPLFEDMTDSDMRDNAPRTIFIISMYADSQPRGMAVTISVKSEKISTLSSENKIISFKEMNPPDSIKDTKSDIIFFQRSVPGHDNKMQFESSSYEGYFLASEKERDLFKLILKKEDELGDRSIMFTVQNED; 0.9
IL-18 variant G3S, K53S (ligand) YFSKLESKLSVIRNLNDQVLFIDQGNRPLFEDMTDSDMRDNAPRTIFIISMYSDSQPRGMAVTISVKSEKISTLSSENKIISFKEMNPPDNIKDTKSDIIFFQRSVPGHDNKMQFESSSYEGYFLASEKERDLFKLILKKEDELGDRSIMFTVQNED; 12
